viability at 168 h listing for selected molecules.
- assay_procedure: Cytotoxicity against human GBM1 assessed as cell viability after 7 days by trypan blue staining method relative to control
- measurement_context: GBM1 cells, read-out: Activity
observed_property: viability at 168 h

1) C[C@H]1CCCCN1CCCNCc1ccc(CNCCCN2CCCC[C@@H]2C)cc1.Cl; > 80%
2) C[C@@H]1CCCCN1CCCNCc1ccc(CNCCCN2CCCC[C@@H]2C)cc1.Cl (mixture of isomers); > 80%
3) C[C@@H]1CCCCN1CCCNCc1ccc(CNCCCN2CCCC[C@H]2C)cc1.Cl; > 80%

* * *

- Test system: MT4
- assay_procedure: Cytotoxicity against human MT4 cells expressing CXCR4 after 5 days by MTT assay
- Assay type: cell-based
- measurement_context: mt4, 120 h, 120 h, read-out: CC50
observed_property: CC50

1) CC1CCCCN1CCCNCc1ccc(CNCCCN2CCCCC2C)cc1 (mixture of isomers; 11); > 44 µM

* * *

viability at 168 h listing for selected compounds.
- assay_procedure: Cytotoxicity against human GBM1 assessed as cell viability after 7 days by trypan blue staining method in presence of CXCL12 relative to control
- measurement_context: GBM1 cells, read-out: Activity
observed_property: viability at 168 h

1. C[C@@H]1CCCCN1CCCNCc1ccc(CNCCCN2CCCC[C@@H]2C)cc1.Cl (mixture of isomers); > 80%
2. C[C@@H]1CCCCN1CCCNCc1ccc(CNCCCN2CCCC[C@H]2C)cc1.Cl; > 80%
3. C[C@H]1CCCCN1CCCNCc1ccc(CNCCCN2CCCC[C@@H]2C)cc1.Cl; > 80%

* * *

pIC50 listing for selected molecules.
- target_under_test: C-X-C chemokine receptor type 4 (Homo sapiens, UniProt P61073)
- Sequence (P61073 whole entry): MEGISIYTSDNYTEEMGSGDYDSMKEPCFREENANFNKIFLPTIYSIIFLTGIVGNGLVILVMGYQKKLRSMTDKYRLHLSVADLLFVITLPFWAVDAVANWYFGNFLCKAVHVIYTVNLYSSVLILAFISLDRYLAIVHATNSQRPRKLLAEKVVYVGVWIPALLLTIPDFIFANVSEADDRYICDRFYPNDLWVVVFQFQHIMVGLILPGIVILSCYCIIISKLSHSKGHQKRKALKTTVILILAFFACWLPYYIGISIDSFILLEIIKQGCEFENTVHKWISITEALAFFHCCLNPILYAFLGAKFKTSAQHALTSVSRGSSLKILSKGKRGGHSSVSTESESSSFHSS
- assay_procedure: Antagonist activity at human recombinant CXCR4 expressed in CHO cells assessed as inhibition of SDF1a-induced electrical impedance by dielectric spectroscopic analysis
pIC50: −log10 of the molar value.
observed_property: pIC50

1) C[C@@H]1CCCCN1CCCNCc1ccc(CNCCCN2CCCC[C@@H]2C)cc1.Cl (mixture of isomers); 6.10
2) C[C@@H]1CCCCN1CCCNCc1ccc(CNCCCN2CCCC[C@H]2C)cc1.Cl; 6.46
3) C[C@H]1CCCCN1CCCNCc1ccc(CNCCCN2CCCC[C@@H]2C)cc1.Cl; 5.96
